The values you see were collected from ChEMBL document CHEMBL3608250.

This listing pairs compounds with measured IC50.
target: Mast/stem cell growth factor receptor Kit (Homo sapiens, UniProt P10721)
Sequence (P10721 whole entry): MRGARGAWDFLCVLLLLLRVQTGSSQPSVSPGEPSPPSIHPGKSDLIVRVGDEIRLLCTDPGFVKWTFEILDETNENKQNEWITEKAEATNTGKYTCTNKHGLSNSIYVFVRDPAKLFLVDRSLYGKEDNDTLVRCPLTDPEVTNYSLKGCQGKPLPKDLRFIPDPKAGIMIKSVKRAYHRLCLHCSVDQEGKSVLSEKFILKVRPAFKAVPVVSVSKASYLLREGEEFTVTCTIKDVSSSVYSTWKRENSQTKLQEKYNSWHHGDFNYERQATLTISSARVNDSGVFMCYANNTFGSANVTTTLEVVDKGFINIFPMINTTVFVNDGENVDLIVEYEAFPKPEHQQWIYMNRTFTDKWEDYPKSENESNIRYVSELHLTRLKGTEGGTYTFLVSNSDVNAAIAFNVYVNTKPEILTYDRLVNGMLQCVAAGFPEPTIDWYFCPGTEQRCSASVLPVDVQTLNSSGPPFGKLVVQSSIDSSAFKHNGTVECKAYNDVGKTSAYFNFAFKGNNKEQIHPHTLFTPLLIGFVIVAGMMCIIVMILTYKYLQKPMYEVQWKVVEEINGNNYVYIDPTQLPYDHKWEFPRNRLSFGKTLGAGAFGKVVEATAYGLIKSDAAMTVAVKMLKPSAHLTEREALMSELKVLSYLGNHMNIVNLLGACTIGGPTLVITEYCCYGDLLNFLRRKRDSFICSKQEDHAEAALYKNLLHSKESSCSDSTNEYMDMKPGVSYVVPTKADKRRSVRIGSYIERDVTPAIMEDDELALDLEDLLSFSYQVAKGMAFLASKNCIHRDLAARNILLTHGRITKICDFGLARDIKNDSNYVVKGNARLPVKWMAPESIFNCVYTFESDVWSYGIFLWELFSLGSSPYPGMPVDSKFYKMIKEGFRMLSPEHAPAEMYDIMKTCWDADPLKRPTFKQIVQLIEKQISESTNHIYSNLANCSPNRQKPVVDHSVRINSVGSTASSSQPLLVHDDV
API: value field is a number in nM; no unit string.

Smiles Structure | Reading Unit | IC50
Cc1ccc([C@H](C)NC(=O)Nc2cccc(F)c2)cc1NC(=O)c1cnc2ccccn12 | nM | 140

Name the reported IC50 value associated with the compound Cc1ccc(CNC(=O)Nc2ccccc2)cc1NC(=O)c1cnc2ccccn12
9.8

Can you handle Cc1ccc([C@H](C)Nc2nc3cc(F)ccc3o2)cc1NC(=O)c1cnc2ccccn12 next?
160

Can you handle Cc1ccc([C@H](C)NC(=O)Nc2ccccc2)cc1NC(=O)c1cnc2ccccn12 next?
310

====

This listing pairs compounds with measured inhibition.
target: Epithelial discoidin domain-containing receptor 1 (Homo sapiens, UniProt Q08345); assay: Inhibition of DDR1 (unknown origin) at 0.0015 uM after 1 hr by time resolved fluorescence method
Sequence (Q08345 whole entry, the tested form may be a part): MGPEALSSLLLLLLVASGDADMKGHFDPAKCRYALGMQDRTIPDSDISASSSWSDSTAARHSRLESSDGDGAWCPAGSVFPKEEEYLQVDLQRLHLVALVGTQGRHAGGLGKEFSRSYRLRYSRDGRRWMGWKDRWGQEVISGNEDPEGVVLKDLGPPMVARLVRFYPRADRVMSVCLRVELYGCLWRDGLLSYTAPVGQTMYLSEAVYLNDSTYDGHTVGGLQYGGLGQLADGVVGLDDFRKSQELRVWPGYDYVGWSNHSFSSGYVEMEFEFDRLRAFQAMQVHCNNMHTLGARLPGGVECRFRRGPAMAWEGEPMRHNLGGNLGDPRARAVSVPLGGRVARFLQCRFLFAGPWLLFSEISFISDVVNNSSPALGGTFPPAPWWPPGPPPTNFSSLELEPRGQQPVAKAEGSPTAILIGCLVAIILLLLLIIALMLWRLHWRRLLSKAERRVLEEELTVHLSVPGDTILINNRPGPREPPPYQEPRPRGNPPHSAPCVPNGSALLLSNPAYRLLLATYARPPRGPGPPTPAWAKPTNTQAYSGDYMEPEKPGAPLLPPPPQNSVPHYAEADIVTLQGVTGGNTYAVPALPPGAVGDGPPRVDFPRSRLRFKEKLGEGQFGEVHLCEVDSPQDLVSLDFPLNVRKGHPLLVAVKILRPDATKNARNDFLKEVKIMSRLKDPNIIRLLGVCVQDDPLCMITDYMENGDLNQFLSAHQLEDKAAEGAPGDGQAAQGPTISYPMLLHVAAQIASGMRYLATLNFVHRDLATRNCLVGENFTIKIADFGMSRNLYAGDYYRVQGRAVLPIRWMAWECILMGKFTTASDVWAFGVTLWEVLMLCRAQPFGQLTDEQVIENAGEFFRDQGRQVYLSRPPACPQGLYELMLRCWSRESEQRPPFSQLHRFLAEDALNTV
API: value field is a number in %; no unit string.

Smiles Structure | Assay Target | Metric | Reading Unit | Meas Value
Cc1ccc([C@H](C)NC(=O)c2cccc(C(F)(F)F)c2)cc1NC(=O)c1cnc2ccccn12 | Epithelial discoidin domain-containing receptor 1 (Homo sapiens, UniProt Q08345) | inhibition | % | 44
Cc1ccc(CNC(=O)Nc2cccc(F)c2)cc1NC(=O)c1cnc2ccccn12 | Epithelial discoidin domain-containing receptor 1 (Homo sapiens, UniProt Q08345) | inhibition | % | 54
Cc1ccc([C@H](C)NC(=O)Nc2cccc(F)c2)cc1NC(=O)c1cnc2ccccn12 | Epithelial discoidin domain-containing receptor 1 (Homo sapiens, UniProt Q08345) | inhibition | % | 54

Name the reported inhibition value associated with the compound Cc1nc(Nc2ncc(C(=O)Nc3c(C)cccc3Cl)s2)cc(N2CCN(CCO)CC2)n1
40

====

target: Discoidin domain-containing receptor 2 (Homo sapiens); assay: Inhibition of collagen I-induced DDR2 (unknown origin) phosphorylation expressed in HEK293 cells after 16 hrs by mesoscale discovery assay
Sequence (Q16832 whole entry, the tested form may be a part): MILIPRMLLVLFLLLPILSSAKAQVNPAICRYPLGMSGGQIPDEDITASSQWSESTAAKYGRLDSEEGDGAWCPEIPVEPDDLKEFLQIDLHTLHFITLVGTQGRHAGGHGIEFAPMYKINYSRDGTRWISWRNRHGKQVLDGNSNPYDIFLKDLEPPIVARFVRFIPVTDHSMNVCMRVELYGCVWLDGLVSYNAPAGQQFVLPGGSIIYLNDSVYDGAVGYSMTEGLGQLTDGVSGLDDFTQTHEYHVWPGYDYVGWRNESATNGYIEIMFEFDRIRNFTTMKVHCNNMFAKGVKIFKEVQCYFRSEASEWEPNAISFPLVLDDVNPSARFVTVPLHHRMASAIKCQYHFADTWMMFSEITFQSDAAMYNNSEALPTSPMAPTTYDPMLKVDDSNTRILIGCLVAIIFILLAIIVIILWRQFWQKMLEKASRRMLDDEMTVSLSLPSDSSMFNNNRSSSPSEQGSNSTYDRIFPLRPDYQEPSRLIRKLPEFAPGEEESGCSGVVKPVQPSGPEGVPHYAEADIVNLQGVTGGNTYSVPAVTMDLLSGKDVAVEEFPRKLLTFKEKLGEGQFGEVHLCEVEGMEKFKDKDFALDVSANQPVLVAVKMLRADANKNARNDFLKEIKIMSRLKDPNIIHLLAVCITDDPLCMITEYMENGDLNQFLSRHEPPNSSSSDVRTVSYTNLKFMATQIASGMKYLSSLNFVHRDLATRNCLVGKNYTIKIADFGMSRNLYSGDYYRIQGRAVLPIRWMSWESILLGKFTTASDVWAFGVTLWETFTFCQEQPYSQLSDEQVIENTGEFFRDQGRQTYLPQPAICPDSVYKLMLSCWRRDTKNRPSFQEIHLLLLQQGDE
Metric: pEC50
Scale explanation: pEC50 corresponds to minus log10 of a concentration expressed in moles per litre.

# value lookup — system Discoidin domain-containing receptor 2 (Homo sapiens), readout pEC50, item Cc1ccc(CNC(=O)Nc2cccc(F)c2)cc1NC(=O)c1cnc2ccccn12
8.06

====

assay: Volume of distribution at steady state in Balb/C mouse at 1 mg/kg, iv and 5 mg/kg, po; type: ADME, organism-based; details: in vivo, read-out: Vdss
This listing pairs compounds with measured Vd.
API: value field is a number in L/kg; no unit string.

Examples with their reported Vd follow.
Smiles Structure | Meas Value
Cc1ccc([C@H](C)NC(=O)c2cccc(C(F)(F)F)c2)cc1NC(=O)c1cnc2ccccn12 | 0.31
Cc1ccc([C@H](C)Nc2nc3cc(F)ccc3o2)cc1NC(=O)c1cnc2ccccn12 | 1.9

Attention now shifts to the item below.
Name the reported Vd value associated with the compound Cc1ccc(CNC(=O)Nc2cccc(F)c2)cc1NC(=O)c1cnc2ccccn12
0.42

====

molecular target: Proto-oncogene tyrosine-protein kinase Src (Homo sapiens); test: Inhibition of c-Src (unknown origin) using biotinylated HER2 peptide as substrate at 10 uM by time resolved fluorescence method
Metric: inhibition

Examples with their reported inhibition follow.
Smiles Structure | Meas Value
Cc1ccc(CNC(=O)Nc2ccccc2)cc1NC(=O)c1cnc2ccccn12 | 54%
Cc1ccc([C@H](C)NC(=O)c2cccc(C(F)(F)F)c2)cc1NC(=O)c1cnc2ccccn12 | 48%

Name the reported inhibition value associated with the molecule Cc1ccc([C@H](C)Nc2nc3cc(F)ccc3o2)cc1NC(=O)c1cnc2ccccn12
52%

Can you handle Cc1ccc([C@H](C)NC(=O)Nc2cccc(F)c2)cc1NC(=O)c1cnc2ccccn12 next?
22%

Can you handle Cc1ccc([C@H](C)NC(=O)Nc2ccccc2)cc1NC(=O)c1cnc2ccccn12 next?
4%
